Attribute: screen cAMP (% parent)
Test system: LLCPK1-B64 cells or SaOS-2 cells
experiment_description: cAMP screen of substituted PTHrP(1-28) analogs (% parent)
Assay type: cell-based
condition_parameters: parent PTHrP(1-28)NH
Ends that are not written are not given here.
# number only, unit % parent dropped from output

Examples with answers:
AVSEHQLLHDKGKSIQDARRRSFLKKLI [A18, S22, K25, 26-PTHrP(1-28)NH, A18,S22,K25,26-PTHrP(1-28)]: 316
A18,L22,K26-PTHrP(1-28) (AVSEHQLLHDKGKSIQDARRRLFLHKLI-NH2) [A18, L22, K26-PTHrP(1-28)NH]: 350
E18,N22,A26-PTHrP(1-28) (AVSEHQLLHDKGKSIQDERRRNFLHALI-NH2) [E18, N22, A26-PTHrP(1-28)NH]: 171
A18,26,S22-PTHrP(1-28) (AVSEHQLLHDKGKSIQDARRRSFLHALI-NH2) [A18, 26, S22-PTHrP(1-28)NH]: 229
E18,K22,A26-PTHrP(1-28) (AVSEHQLLHDKGKSIQDERRRKFLHALI-NH2) [E18, K22, A26-PTHrP(1-28)NH]: 315

**Query** Request the reported screen cAMP (% parent) associated with A18,26,W22-PTHrP(1-28) (AVSEHQLLHDKGKSIQDARRRWFLHALI-NH2) [A18, 26, W22-PTHrP(1-28)NH]
**Result** 188

**Query** Which value of screen cAMP (% parent) has been reported for W22-PTHrP(1-28) (AVSEHQLLHDKGKSIQDLRRRWFLHHLI-NH2) [W22-PTHrP(1-28)NH] in the records?
**Result** 129

**Query** Requested read-out: screen cAMP (% parent). Entry: A18,22,F25,K26-PTHrP(1-28) (AVSEHQLLHDKGKSIQDARRRAFLFKLI-NH2) [A18, 22, F25, K26-PTHrP(1-28)NH]
**Result** 337

**Query** What value of screen cAMP (% parent) has been reported for the following substance? A18-PTHrP(1-28) (AVSEHQLLHDKGKSIQDARRRFFLHHLI-NH2) [A18-PTHrP(1-28)NH]
**Result** 164

**Query** Reported screen cAMP (% parent) for A18,W22,K26-PTHrP(1-28) (AVSEHQLLHDKGKSIQDARRRWFLHKLI-NH2) [A18, W22, K26-PTHrP(1-28)NH] : what is it?
**Result** 267

**Query** Look up screen cAMP (% parent): A18,22,26-PTHrP(1-28) (AVSEHQLLHDKGKSIQDARRRAFLHALI-NH2) [A18, 22, 26-PTHrP(1-28)NH]
**Result** 343
